FYI, the data here is from PubChem BioAssay (NCATS).

Protocol Description: Cellular Toxicity (caspase-3) H-4-II-E (AID 663);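 note: cells exposed to compound for 16 hr before readout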
Test Context: H-4-II-E rat hepatoma, scaled: DMSO 0%, 100 µM tamoxifen 100%; at 92.2 µM (top of the series)
Inconclusive results are not listed.
Readout Type: caspase-3 activation (%)

In [3]: df
Out[3]:
                                    molecule  numeric_result
 0                     Nc1cccc(S(=O)(=O)O)c1          -0.597
 1                            CCCCN(CCO)CCCC          -0.761
 2                             CC(=O)c1nccs1            1.15
 3                      O=C(O)c1cccc(Cl)c1Cl           -0.64
 4                    COc1ccccc1[N+](=O)[O-]          0.0394
 5                        FC(F)(F)c1ccccc1Cl           0.997
 6                        COc1cccc2sc(N)nc12           0.718
 7                            CC(=O)c1ccccn1            1.68
 8                           O=Cc1ccc(Cl)cc1           0.113
 9                      O=C(O)c1ccccc1C(=O)O          -0.105
10                NC(=O)c1ccccc1[N+](=O)[O-]          0.0974
11                        CC(=O)Nc1ccc(C)cc1           0.606
12                                CC(C)C(C)C          -0.199
13                            C=CC(=O)NC(C)C           0.575
14                                 COC(=O)CS           0.405
15                             CC(=O)OC(C)=O          -0.382
16               CCOc1cc(OCC)c(C(C)=O)cc1OCC           0.345
17                       c1ccc(Oc2ccccc2)cc1           0.181
18                     Cc1nc2ccc(Cl)cc2[nH]1           0.101
19                       C=CCOC(=O)COCCC(C)C          -0.913
20  CCCCCCCCC/C=C/CC1CC(=O)OC1=O (stereo not given)            1.69
21                    O=C(O)c1cc(Cl)cc(Cl)c1          -0.143
22                                CN(C)CCCCl           0.431
23                                 CCCCCCC=O            1.06
24                             Nc1ccc(F)cc1F          -0.359
25                  Cc1cc([N+](=O)[O-])ccc1N            -0.2
26  CC(=C/C=C/C(C)=C/C=C/C=C(C)/C=C/C=C(C)/C=C/C(=O)O)/C=C/C(=O)O           0.467
27                       Cc1ccc2oc(=O)ccc2c1            1.34
28                                  NCCCCCCN            1.31
29       O=C1OC(=O)c2c(Br)c(Br)c(Br)c(Br)c21           0.557
30                         O=C(O)/C=C/C(=O)O             1.4
31        CC(C)(C)OCC1CO1 (stereo not given)           0.741
32             Nc1cccc2c(=O)[nH][nH]c(=O)c12          0.0355
33  CCCC(Cl)CCCC(Cl)CCC(Cl)CCC(Cl)CCC(Cl)CCCC(Cl)CCC (stereo not given)           0.272
34                                   CCCCC=O          -0.686
